Hey, just so you know, these numbers are from patent EP0973790B1.

# measurementTarget: human estrogen receptor (hER-α) (Homo sapiens, UniProt P03372)
# Sequence (P03372 whole entry): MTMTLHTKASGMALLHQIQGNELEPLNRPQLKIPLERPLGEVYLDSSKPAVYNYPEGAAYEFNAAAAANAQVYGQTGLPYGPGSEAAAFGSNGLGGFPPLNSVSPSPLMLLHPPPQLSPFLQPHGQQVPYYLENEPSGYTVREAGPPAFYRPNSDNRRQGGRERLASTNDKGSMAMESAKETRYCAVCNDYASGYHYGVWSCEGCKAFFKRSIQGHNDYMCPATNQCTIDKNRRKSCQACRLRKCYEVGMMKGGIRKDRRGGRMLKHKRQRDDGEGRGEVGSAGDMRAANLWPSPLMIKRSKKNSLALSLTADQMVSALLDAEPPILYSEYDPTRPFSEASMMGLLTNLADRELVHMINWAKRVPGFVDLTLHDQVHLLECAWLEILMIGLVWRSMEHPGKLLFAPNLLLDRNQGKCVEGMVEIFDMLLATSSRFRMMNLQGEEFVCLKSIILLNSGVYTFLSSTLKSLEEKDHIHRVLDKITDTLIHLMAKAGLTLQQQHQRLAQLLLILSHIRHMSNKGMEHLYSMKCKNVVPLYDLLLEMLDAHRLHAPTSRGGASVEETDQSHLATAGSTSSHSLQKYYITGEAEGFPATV
# testSummary: Estrogen receptor binding, whole cell test procedure
# studyConditions: comparison values for known estrogens
property: Ki (µM)
Please reply with the bare figure in µM and do not write the unit itself.

Notebook: C[C@]12CCc3c(ccc4cc(O)ccc34)[C@@H]1CCC2=O [equilenen] , Ki read as 0.375
